Biological target: human α4β2 nAChR subtype (Homo sapiens, UniProt P17787+P43681)
Sequence (P43681 29-627 limits assumed): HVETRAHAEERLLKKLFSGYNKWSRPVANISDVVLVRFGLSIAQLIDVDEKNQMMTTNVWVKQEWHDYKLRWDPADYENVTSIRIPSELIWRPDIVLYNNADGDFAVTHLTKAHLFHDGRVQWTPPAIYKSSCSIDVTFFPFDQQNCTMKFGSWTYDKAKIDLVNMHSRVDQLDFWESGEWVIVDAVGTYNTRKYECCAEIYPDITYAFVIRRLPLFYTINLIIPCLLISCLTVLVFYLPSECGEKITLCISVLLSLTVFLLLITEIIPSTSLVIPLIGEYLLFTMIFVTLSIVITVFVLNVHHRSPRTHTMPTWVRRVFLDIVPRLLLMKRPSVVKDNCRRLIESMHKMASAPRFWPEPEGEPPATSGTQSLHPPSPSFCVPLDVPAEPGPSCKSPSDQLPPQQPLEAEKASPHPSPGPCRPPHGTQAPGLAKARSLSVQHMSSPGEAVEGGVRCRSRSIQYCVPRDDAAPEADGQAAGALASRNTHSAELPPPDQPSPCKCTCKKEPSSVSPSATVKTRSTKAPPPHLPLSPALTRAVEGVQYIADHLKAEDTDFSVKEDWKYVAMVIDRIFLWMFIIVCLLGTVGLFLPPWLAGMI
Sequence (P17787 26-502): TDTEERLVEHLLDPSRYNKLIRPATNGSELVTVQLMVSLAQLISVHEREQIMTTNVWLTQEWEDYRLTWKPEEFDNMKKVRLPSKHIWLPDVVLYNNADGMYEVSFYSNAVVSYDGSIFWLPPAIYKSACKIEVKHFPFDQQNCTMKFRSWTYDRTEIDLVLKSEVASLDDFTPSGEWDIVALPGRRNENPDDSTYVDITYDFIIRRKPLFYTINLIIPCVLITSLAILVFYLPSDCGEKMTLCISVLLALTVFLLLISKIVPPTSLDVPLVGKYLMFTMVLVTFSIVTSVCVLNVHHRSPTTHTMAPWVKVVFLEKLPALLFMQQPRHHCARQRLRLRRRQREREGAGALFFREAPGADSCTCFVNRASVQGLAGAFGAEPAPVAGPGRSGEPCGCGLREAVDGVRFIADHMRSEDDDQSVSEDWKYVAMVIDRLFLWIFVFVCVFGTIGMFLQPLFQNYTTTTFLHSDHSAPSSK
Assay: Radioligand binding, [3H]nicotine, membranes from SH-EP1/human α4β2 clonal cells
Conditions: [3H]nicotine 5 nM, SH-EP1/human α4β2 cell membranes
compounds and their reported Ki

>  <compound>
O=C(C1CC(F)C1)N1CC2CNCC2C1 (stereo not drawn)

>  <Ki / nM>
18

$$$$
>  <compound>
NC(=O)CC(=O)N1CC2CNCC2C1 (stereo not drawn)

>  <Ki / nM>
746

$$$$
>  <compound>
O=C([C@H]1C[C@H]1F)N1CC2CNCC(C2)C1 [Example 10-78]

>  <Ki / nM>
1.7

$$$$
>  <compound>
CC(C)(F)C(=O)N1CC2CNCC2C1 (stereo not drawn)

>  <Ki / nM>
26.9

$$$$
>  <compound>
CC1(C)C(C(=O)N2CC3CNCC3C2)C1(C)C (stereo not drawn)

>  <Ki / nM>
16.4

$$$$
>  <compound>
COC1CC(C(=O)N2CC3CNCC3C2)C1 (stereo not drawn)

>  <Ki / nM>
147

$$$$

###

compounds and their reported Ki
Target: human α4β2 nAChR subtype (Homo sapiens, UniProt P17787+P43681)
Assay: Radioligand binding, [3H]nicotine, membranes from SH-EP1/human α4β2 clonal cells
Settings: [3H]nicotine 5 nM, SH-EP1/human α4β2 cell membranes

>  <compound>
O=C(CC1CC1)N1CC2CNCC(C2)C1

>  <Ki>
33.9 nM

$$$$
>  <compound>
O=C([C@H]1C[C@H]1F)N1CC2CNCC2C1 (stereo partly shown)

>  <Ki>
30 nM

$$$$
>  <compound>
O=C(C1CC=CC1)N1CC2CNCC2C1 (stereo not shown)

>  <Ki>
72.2 nM

$$$$
>  <compound>
O=C(C1CC=CC1)N1CC2CNCC(C2)C1

>  <Ki>
12.5 nM

$$$$
>  <compound>
O=C(C1CCCC1)N1CC2CNCC(C2)C1

>  <Ki>
20.2 nM

$$$$
>  <compound>
CC1CC1C(=O)N1CC2CNCC(C2)C1 (stereo not shown)

>  <Ki>
1 nM

$$$$
>  <compound>
O=C(C1CC12CCC2)N1CC2CNCC2C1 (stereo not shown)

>  <Ki>
4 nM

$$$$
>  <compound>
O=C([C@@H]1CC2C=CC1C2)N1CC2CNCC(C2)C1 (stereo partly shown)

>  <Ki>
2.2 nM

$$$$
>  <compound>
CC1(C)CC1C(=O)N1CC2CNCC2C1 (stereo not shown)

>  <Ki>
16.9 nM

$$$$
>  <compound>
O=C(C(F)F)N1CC2CNCC2C1 (stereo not shown)

>  <Ki>
31.7 nM

$$$$
>  <compound>
CCC(=O)N1CC2CNCC2C1 (stereo not shown)

>  <Ki>
8.5 nM

$$$$
>  <compound>
O=C([C@H]1C[C@H]1F)N1CC2CNCC(C2)C1 [Example 10-92]

>  <Ki>
7.3 nM

$$$$
>  <compound>
O=C([C@@H]1C[C@H]1F)N1CC2CNCC(C2)C1

>  <Ki>
1.4 nM

$$$$
>  <compound>
O=C(C1C[C@H]2C=C[C@@H]1CC2)N1CC2CNCC(C2)C1 (stereo partly shown)

>  <Ki>
72.4 nM

$$$$
>  <compound>
O=C(C1CCC[C@H]1O)N1CC2CNCC(C2)C1 (stereo partly shown)

>  <Ki>
731 nM

$$$$
>  <compound>
O=C(C1CC(F)(F)C1)N1CC2CNCC2C1 (stereo not shown)

>  <Ki>
5.7 nM

$$$$
>  <compound>
COC(C(=O)N1CC2CNCC(C2)C1)c1ccccc1 (stereo not shown)

>  <Ki>
386 nM

$$$$
>  <compound>
C/C=C/CC(=O)N1CC2CNCC(C2)C1

>  <Ki>
16.7 nM

$$$$
>  <compound>
O=C(C1CC=CCC1c1cccnc1)N1CC2CNCC2C1 (stereo not shown)

>  <Ki>
345 nM

$$$$
>  <compound>
CC(C)C(=O)N1CC2CNCC(C2)C1

>  <Ki>
44.4 nM

$$$$
>  <compound>
O=C(CCF)N1CC2CNCC2C1 (stereo not shown)

>  <Ki>
14.8 nM

$$$$
>  <compound>
CC(C)(C)C(=O)N1CC2CNCC2C1 (stereo not shown)

>  <Ki>
8.1 nM

$$$$

###

compounds and their reported log10 Ki
Molecular target: human α4β2 nAChR subtype (Homo sapiens, UniProt P17787+P43681)
Test: Radioligand binding, [3H]nicotine, membranes from SH-EP1/human α4β2 clonal cells
Conditions: [3H]nicotine 5 nM, SH-EP1/human α4β2 cell membranes
measured-quantity: log10 Ki (log10 of the value in µM)

>  <compound>
O=C(CCF)N1CC2CNCC(C2)C1

>  <reported-measurement>
-2.02

$$$$
>  <compound>
O=C(N1CC2CNCC(C2)C1)C1(O)CC1

>  <reported-measurement>
-0.65

$$$$
>  <compound>
O=C(C1CC1)N1CC2CNCC2C1 (stereo not shown)

>  <reported-measurement>
-2.74

$$$$
>  <compound>
O=C(C1C2CCCCC21)N1CC2CNCC(C2)C1 (stereo not shown)

>  <reported-measurement>
-1.19

$$$$
>  <compound>
O=C(C1CC1(F)F)N1CC2CNCC2C1 (stereo not shown)

>  <reported-measurement>
-2.68

$$$$
>  <compound>
O=C([C@H]1C[C@H]1F)N1CC2CNCC2C1 (stereo partly shown)

>  <reported-measurement>
-2.54

$$$$
>  <compound>
CC1C(C)C1C(=O)N1CC2CNCC2C1 (stereo not shown)

>  <reported-measurement>
-1.91

$$$$
>  <compound>
O=C(C1CC2C=CC1C2)N1CC2CNCC(C2)C1 (stereo not shown)

>  <reported-measurement>
-1.90

$$$$
>  <compound>
O=C(C1C[C@H]2C=C[C@@H]1CC2)N1CC2CNCC2C1 (stereo partly shown)

>  <reported-measurement>
-1.35

$$$$
>  <compound>
O=C(C1CC2CCC1C2)N1CC2CNCC2C1 (stereo not shown)

>  <reported-measurement>
-1.19

$$$$

###

Target: α7 nAChR subtype (Rattus norvegicus, UniProt Q05941)
Construct: The hippocampus was removed and placed in 10 volumes (weight:volume) of ice-cold preparative buffer; from tissue; host or cells: rat hippocampus membranes (female Sprague-Dawley)
Sequence (Q05941 23-502): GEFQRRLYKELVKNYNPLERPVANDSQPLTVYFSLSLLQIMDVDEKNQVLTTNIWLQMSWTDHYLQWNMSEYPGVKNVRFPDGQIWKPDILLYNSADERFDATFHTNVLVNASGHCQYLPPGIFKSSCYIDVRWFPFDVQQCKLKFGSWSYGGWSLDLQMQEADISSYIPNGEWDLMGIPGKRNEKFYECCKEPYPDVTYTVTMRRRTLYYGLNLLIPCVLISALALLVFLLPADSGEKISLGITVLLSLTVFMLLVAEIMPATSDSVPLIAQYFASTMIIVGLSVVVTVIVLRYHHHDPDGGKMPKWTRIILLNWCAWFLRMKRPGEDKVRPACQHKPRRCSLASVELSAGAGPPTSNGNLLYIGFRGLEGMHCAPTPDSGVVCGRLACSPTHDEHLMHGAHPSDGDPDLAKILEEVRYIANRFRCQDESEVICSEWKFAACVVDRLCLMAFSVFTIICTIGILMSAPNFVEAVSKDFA
Assay: Radioligand binding, [3H]MLA, rat hippocampus membranes
Conditions: read-out: α7 high through-put screening (HTS) result

>  <compound>
O=C(C1CC(F)C1)N1CC2CNCC2C1 (stereo not shown) [Example 10-33]

>  <inhibition at 5 µM>
< 50%

$$$$
>  <compound>
C/C=C/CC(=O)N1CC2CNCC(C2)C1 [Example 10-66]

>  <inhibition at 5 µM>
< 50%

$$$$
>  <compound>
CC(=O)N1CC2CNCC2C1 (stereo not shown) [Example 10-1]

>  <inhibition at 5 µM>
< 50%

$$$$
>  <compound>
O=C([C@@H]1C[C@H]1F)N1CC2CNCC2C1 (stereo partly shown) [Example 10-37]

>  <inhibition at 5 µM>
< 50%

$$$$
>  <compound>
O=C(CF)N1CC2CNCC2C1 (stereo not shown) [Example 10-11]

>  <inhibition at 5 µM>
< 50%

$$$$
>  <compound>
O=C([C@@H]1C[C@@H]1F)N1CC2CNCC2C1 (stereo partly shown) [Example 10-39]

>  <inhibition at 5 µM>
< 50%

$$$$
>  <compound>
O=C(C1CC=CCC1c1cccnc1)N1CC2CNCC2C1 (stereo not shown) [Example 10-48]

>  <inhibition at 5 µM>
< 50%

$$$$
>  <compound>
CC(F)(F)C(=O)N1CC2CNCC2C1 (stereo not shown) [Example 10-40]

>  <inhibition at 5 µM>
< 50%

$$$$
>  <compound>
O=C(C1C2CCCCC21)N1CC2CNCC(C2)C1 (stereo not shown) [Example 10-97]

>  <inhibition at 5 µM>
< 50%

$$$$
>  <compound>
O=C(C1C[C@H]2C=C[C@@H]1CC2)N1CC2CNCC2C1 (stereo partly shown) [Example 10-46]

>  <inhibition at 5 µM>
< 50%

$$$$
>  <compound>
CC1(C)CC(C(=O)N2CC3CNCC3C2)C1 (stereo not shown) [Example 10-50]

>  <inhibition at 5 µM>
< 50%

$$$$
>  <compound>
CC(C)C(=O)N1CC2CNCC2C1 (stereo not shown) [Example 10-31]

>  <inhibition at 5 µM>
< 50%

$$$$
>  <compound>
O=C([C@H]1C[C@H]1F)N1CC2CNCC2C1 (stereo partly shown) [Example 10-28]

>  <inhibition at 5 µM>
< 50%

$$$$
>  <compound>
O=C(C1CC=CC1)N1CC2CNCC2C1 (stereo not shown) [Example 10-7]

>  <inhibition at 5 µM>
< 50%

$$$$
>  <compound>
O=C(C1CC=CCC1c1cccnc1)N1CC2CNCC(C2)C1 (stereo not shown) [Example 10-101]

>  <inhibition at 5 µM>
< 50%

$$$$
>  <compound>
O=C(C1CC2CCC1C2)N1CC2CNCC2C1 (stereo not shown) [Example 10-42]

>  <inhibition at 5 µM>
< 50%

$$$$
>  <compound>
COC1CC(C(=O)N2CC3CNCC3C2)C1 (stereo not shown) [Example 10-53]

>  <inhibition at 5 µM>
< 50%

$$$$
>  <compound>
O=C(C1CCC1)N1CC2CNCC2C1 (stereo not shown) [Example 10-25]

>  <inhibition at 5 µM>
< 50%

$$$$
>  <compound>
O=C(C1CCCC1)N1CC2CNCC2C1 (stereo not shown) [Example 10-3]

>  <inhibition at 5 µM>
< 50%

$$$$
>  <compound>
CC(C)=CC(=O)N1CC2CNCC(C2)C1 [Example 10-60]

>  <inhibition at 5 µM>
< 50%

$$$$
>  <compound>
O=C([C@@H]1CC2C=CC1C2)N1CC2CNCC2C1 (stereo partly shown) [Example 10-44]

>  <inhibition at 5 µM>
< 50%

$$$$
>  <compound>
O=C(N1CC2CNCC(C2)C1)C1(O)CC1 [Example 10-72]

>  <inhibition at 5 µM>
< 50%

$$$$

// data source = patent US20110071180A1
